tested on: RL; assay: Antiproliferative activity against human RL cells assessed as reduction in cell viability incubated for 72 hrs by MTT assay; type: functional, cell-based
Measured parameter: pIC50
Reminder that pIC50 means the negative base-10 logarithm of the concentration expressed in mol/L.

Entry COc1csc(/C=C\c2cc(OC)c(OC)c(OC)c2)c1 — recorded pIC50 = 7.96

Entry COc1cc(/C=C\c2cc3ccccc3s2)cc(OC)c1OC ; pIC50 = 8.12

According to the records, this molecule COc1cc2c(c(OC)c1OC)-c1ccc(OC)c(=O)cc1[C@@H](NC(C)=O)CC2 [COLCHICINE] displays pIC50 of 8.36

// field: pIC50; key: COc1ccc(/C=C\c2cc(OC)c(OC)c(OC)c2)cc1O [COMBRETASTATIN A4] ; value = 8.85

The recorded pIC50 for entry COc1cc(/C=C\c2sc3ccccc3c2C)cc(OC)c1OC equals 7.21

For this molecule ( COc1cc(/C=C\c2cc3cc(F)ccc3s2)cc(OC)c1OC ), measured pIC50 is 7.42

---

For each record, write down the corresponding pEC50.
target: Tubulin; test: Inhibition of tubulin polymerization in human HeLa cells assessed as dynamic tyrosinated microtubules content by incubated for 2 hrs by immunofluorescence staining based assay; assay type: cell-based
A value of pEC50 is the negative decimal logarithm of a concentration given in moles per litre.

pEC50 reported for this compound COc1cc(/C=C\c2cc3cc(F)ccc3s2)cc(OC)c1OC : 6.28

pEC50 for COc1cc(/C=C\c2sc3ccccc3c2C)cc(OC)c1OC is 6.26

Lab note: COc1cc(/C=C\c2cc3cc(O)ccc3s2)cc(OC)c1OC gave pEC50 of 6.14
